I'd appreciate it if you could supply cytotoxicity at 10 µM values for the items below.
method: Toxicity liver stage against HepG2, at 10uM
Assay type: cell-based
Set-up: test concentration 10 uM, cell line HepG2-A16-CD81EGFP
run conditions: human, HepG2-A16-CD81EGFP cells; read-out: INHIBITION
Hi! Could you send only the number? It should be in %, unit omitted.

Asked: Return the recorded cytotoxicity at 10 µM value; entry: COc1ccc(C(=O)N(Cc2cnn(C)c2)C(C)C)cc1Br
Given back: -9.02

Asked: Return the recorded cytotoxicity at 10 µM value; entry: CNc1cccc(C2CCCN(C(=O)c3ccn(C)n3)C2)n1 (configuration not stated)
Given back: -13.4

Asked: Return the recorded cytotoxicity at 10 µM value; entry: c1cnc(N2CCCC3(CN(CC4CCOCC4)CCO3)C2)cn1 (configuration not stated)
Given back: 0.37

Asked: Return the recorded cytotoxicity at 10 µM value; entry: CCOc1ncccc1C(=O)N1CCCC1c1c(C)nn(C)c1Cl (configuration not stated)
Given back: 0.534

Asked: Return the recorded cytotoxicity at 10 µM value; entry: c1csc(CN2CCO[C@H]3[C@H](OCC4CCCC4)CC[C@@H]32)n1
Given back: 6.09

Asked: Return the recorded cytotoxicity at 10 µM value; entry: Cc1cnc(C)c(N2CCC(c3nccn3Cc3cscn3)CC2)n1
Given back: 1.89

Asked: Return the recorded cytotoxicity at 10 µM value; entry: OC1(CN2CCOC(CNc3cccnn3)C2)CCCCC1 (configuration not stated)
Given back: -4.67

Asked: Return the recorded cytotoxicity at 10 µM value; entry: CN(C)c1nc2c(c(N3CCc4ccccc4C3)n1)CCNC2
Given back: 10.9

Asked: Return the recorded cytotoxicity at 10 µM value; entry: CN1CCCN(C(=O)NCCNc2cnccn2)CC1
Given back: -3.4

Asked: Return the recorded cytotoxicity at 10 µM value; entry: COc1cccn(CC(=O)N(C)CCSC)c1=O
Given back: 5.03

Asked: Return the recorded cytotoxicity at 10 µM value; entry: NC(=O)N1CCC2(CC1)CN(c1ncccn1)CCO2
Given back: -75.1

Asked: Return the recorded cytotoxicity at 10 µM value; entry: COc1cccc(-c2nc(CNCCCn3cccn3)cs2)c1
Given back: -19.7

Asked: Return the recorded cytotoxicity at 10 µM value; entry: Cc1ncsc1CNCC(C)c1nc2ccccc2o1 (configuration not stated)
Given back: 4.17

Asked: Return the recorded cytotoxicity at 10 µM value; entry: CCC(NC(=O)CN(C)Cc1ccc(C)o1)c1ccc(Br)cc1 (configuration not stated)
Given back: 35.5

Asked: Return the recorded cytotoxicity at 10 µM value; entry: Cc1cc(CNC(=O)Nc2ccc(C(=O)NC3CC3)cc2)no1
Given back: -0.396

Asked: Return the recorded cytotoxicity at 10 µM value; entry: CCSc1cc(C(=O)NC2CCN(C(=O)c3ccccc3)CC2)ccn1
Given back: 13.5

Asked: Return the recorded cytotoxicity at 10 µM value; entry: Cc1cccc(CN2CCc3nnc(CO)n3CC2)n1
Given back: 6.41

Asked: Return the recorded cytotoxicity at 10 µM value; entry: Cc1ccc(NC2CCN(C(=O)CC3CCCO3)CC2)nn1 (configuration not stated)
Given back: -10.5

Asked: Return the recorded cytotoxicity at 10 µM value; entry: Cc1nccn1CCCn1cncc1-c1ccc2c(c1)CCCN2C
Given back: -4.7

Asked: Return the recorded cytotoxicity at 10 µM value; entry: OC(CNCCn1cccn1)c1cccc(F)c1 (configuration not stated)
Given back: -4.41

Asked: Return the recorded cytotoxicity at 10 µM value; entry: Cc1cc(C2CCCN(CC(=O)N3CCc4ccccc43)C2)n[nH]1 (configuration not stated)
Given back: 2.01

Asked: Return the recorded cytotoxicity at 10 µM value; entry: CN(C)c1ccc(CNC(=O)NCCc2ccccn2)cn1
Given back: -4.66

Asked: Return the recorded cytotoxicity at 10 µM value; entry: O=C(NCc1ccc(F)cc1)N1CCC(C2OCCO2)CC1
Given back: -2.39

Asked: Return the recorded cytotoxicity at 10 µM value; entry: COc1ccc(-c2cc(C3CCNCC3)nc(C)n2)cc1
Given back: 10.2

Asked: Return the recorded cytotoxicity at 10 µM value; entry: COc1ccc(-n2cc3[nH]c(=O)n(Cc4cccc(F)c4)n3c2=O)cc1
Given back: 14.8

Asked: Return the recorded cytotoxicity at 10 µM value; entry: COc1ccccc1CCNC(=O)N1CCC(n2cncn2)CC1
Given back: 0.428

Asked: Return the recorded cytotoxicity at 10 µM value; entry: Cn1ncc2c(=O)[nH]c(CN(Cc3ccco3)C3CCCC3)nc21
Given back: 20.8

Asked: Return the recorded cytotoxicity at 10 µM value; entry: Cn1cc(NC(=O)CNC(=O)N2CCN(c3ccccc3)CC2)cn1
Given back: 0.0207

Asked: Return the recorded cytotoxicity at 10 µM value; entry: COc1ccccc1OCc1cc(C(=O)N2CCC(NC(C)=O)C2)n[nH]1 (configuration not stated)
Given back: -4.26

Asked: Return the recorded cytotoxicity at 10 µM value; entry: COCc1ccc(CNC(=O)CN2CCc3ccccc32)cc1
Given back: 6.68

Asked: Return the recorded cytotoxicity at 10 µM value; entry: CCOc1ccccc1CSCCn1nc2ccccn2c1=O
Given back: 1.88

Asked: Return the recorded cytotoxicity at 10 µM value; entry: O=C(NC1CC1)c1nnn(-c2cccc(C(F)(F)F)c2)c1C1CC1
Given back: 4.01

Asked: Return the recorded cytotoxicity at 10 µM value; entry: CC(=O)OCC1CCCCN1C(=O)c1ccc(Cn2ccnc2)o1 (configuration not stated)
Given back: -54.5

Asked: Return the recorded cytotoxicity at 10 µM value; entry: COCCn1ccnc1C1CCCN(C(=O)CSCC2CC2)C1 (configuration not stated)
Given back: -14.6

Asked: Return the recorded cytotoxicity at 10 µM value; entry: CSc1nc(C2CC2)nc(C)c1C(=O)NCc1cc(C)on1
Given back: -11.7

Asked: Return the recorded cytotoxicity at 10 µM value; entry: Cc1nc(C)n(CC2CN(CCc3ccccc3Cl)CCO2)n1 (configuration not stated)
Given back: -0.431

Asked: Return the recorded cytotoxicity at 10 µM value; entry: COc1cccc([C@@H](C)n2ccnc2-c2cc3n(n2)CCNC3)c1
Given back: 3.09

Asked: Return the recorded cytotoxicity at 10 µM value; entry: CN1CCC(Cc2noc(CCc3nc4ccccc4nc3O)n2)CC1
Given back: 7.23

Asked: Return the recorded cytotoxicity at 10 µM value; entry: CC(C)c1cc(C(=O)NCCc2nc(-c3cccnc3)n[nH]2)[nH]n1
Given back: 8.02

Asked: Return the recorded cytotoxicity at 10 µM value; entry: Cc1ncsc1CCN(C)C(=O)CCc1nc2cccnc2n1C
Given back: -149

Asked: Return the recorded cytotoxicity at 10 µM value; entry: COCCN1CCO[C@H]2CCN(C(=O)c3ccnnc3)CC[C@@H]21
Given back: 0.196

Asked: Return the recorded cytotoxicity at 10 µM value; entry: Cc1ccccc1CN1CC[C@H]2C[C@H](C(=O)N(C)C)O[C@H]2C1
Given back: 4.36

Asked: Return the recorded cytotoxicity at 10 µM value; entry: CC(NC(=O)CNC(=O)OC(C)(C)C)c1ccc(Cl)s1 (configuration not stated)
Given back: 2.99

Asked: Return the recorded cytotoxicity at 10 µM value; entry: O=C(c1ccnc(C2CCNCC2)c1)N1CCCC1
Given back: 3.69

Asked: Return the recorded cytotoxicity at 10 µM value; entry: Cc1cn2nc(Sc3nnc(C(C)C)n3C)sc2n1
Given back: 2.3

Asked: Return the recorded cytotoxicity at 10 µM value; entry: CCN(C)c1ncnc2c1CCN(C(=O)c1ccc(C)o1)CC2
Given back: -0.796

Asked: Return the recorded cytotoxicity at 10 µM value; entry: CC(C)c1nccn1CCCNC(=O)c1ccc(-c2cncnc2)nc1
Given back: 16.1
